The reported measurements were obtained from PubChem BioAssay AID248.

Test system: L1210 leukemia ip in BDF1 mice, survival T/C
assay_info: NCI In Vivo Anticancer Drug Screen. Data for tumor model L1210 Leukemia (intraperitoneal) in B6D2F1 (BDF1) mice
experimental_conditions: endpoint: mean survival time; dose: 100.0 mg/kg/injection; schedule: Q01DX001 (ip); vehicle: acetone; higher = longer survival
Description: The antitumor activity of compounds was measured in mice bearing transplantable tumors. Survival or tumor size were measured and the results are expressed as the measurement made in the treated group (T) divided by the measurement made in the vehicle treated control group (C). The tumor model used in this assay is L1210 Leukemia (intraperitoneal) in B6D2F1 (BDF1) mice
Inconclusive results and toxic doses are left out.
endpoint_name: T/C

Request: Tell me the measured T/C of O=S(=O)(/C=C/c1ccccc1)Oc1ccc(-c2ccccc2)cc1 , please.
Response: 104 % of control

Request: FC(F)(F)C(F)(F)C1=NS1(F)C(F)(C(F)(F)F)C(F)(F)F (centres undefined)
Response: 100 % of control

Request: CNS(=O)(=O)c1ncnc2nc[nH]c12
Response: 100 % of control

Request: COCOCP(=O)(OC)OC
Response: 102 % of control
